Entry source: paper PMC10247784

target_entity: human TAS2R1 (Homo sapiens, UniProt Q9NYW7)
Construct: expressed in transfected cells; host or cells: HEK293T-Gα16gust44
Sequence (Q9NYW7 1-299): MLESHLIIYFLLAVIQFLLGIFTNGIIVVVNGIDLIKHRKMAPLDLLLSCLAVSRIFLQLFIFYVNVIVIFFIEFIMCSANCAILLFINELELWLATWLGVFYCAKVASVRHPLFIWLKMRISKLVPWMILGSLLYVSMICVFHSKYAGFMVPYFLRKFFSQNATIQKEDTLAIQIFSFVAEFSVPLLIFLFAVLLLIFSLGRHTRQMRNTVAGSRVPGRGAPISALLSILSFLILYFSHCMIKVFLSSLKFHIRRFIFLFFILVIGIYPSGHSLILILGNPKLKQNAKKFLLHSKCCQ
assay_name: Calcium imaging assay (FLIPR), HEK293T-Gα16gust44 cells transfected with human TAS2R1
Assay type: cell-based
condition_context: Time 96.796 s
The entries below come with measured RLU values attached.

{"molecule": "C[C@H](CCC(=O)O)[C@H]1CC[C@H]2[C@@H]3[C@@H](O)C[C@@H]4C[C@H](O)CC[C@]4(C)[C@H]3CC[C@]12C [Ursodeoxycholic Acid, ursodeoxycholic acid]", "target_entity": "human TAS2R1 (Homo sapiens, UniProt Q9NYW7)", "RLU / RLU": 484.826}
{"molecule": "C[C@H](CCC(=O)O)[C@H]1CC[C@H]2[C@@H]3[C@H](O)C[C@@H]4C[C@H](O)CC[C@]4(C)[C@H]3CC[C@]12C [Chenodeoxycholic Acid, chenodeoxycholic acid]", "target_entity": "human TAS2R1 (Homo sapiens, UniProt Q9NYW7)", "RLU / RLU": 731.254}
{"molecule": "C[C@H](CCC(=O)O)[C@H]1CC[C@H]2[C@@H]3[C@H](O)C[C@@H]4C[C@H](O)CC[C@]4(C)[C@H]3C[C@H](O)[C@]12C [Cholic Acid, cholic acid]", "target_entity": "human TAS2R1 (Homo sapiens, UniProt Q9NYW7)", "RLU / RLU": 614.664}
{"molecule": "C[C@H](CCC(=O)O)[C@H]1CC[C@H]2[C@@H]3CC[C@@H]4C[C@H](O)CC[C@]4(C)[C@H]3CC[C@]12C [Lithocholic Acid, lithocholic acid]", "target_entity": "human TAS2R1 (Homo sapiens, UniProt Q9NYW7)", "RLU / RLU": 905.406}

* * *

target_entity: mouse Tas2r144 (Mus musculus, UniProt Q7TQB8)
Construct: expressed in transfected cells; host or cells: HEK293T-Gα16gust44
Sequence (Q7TQB8 whole entry): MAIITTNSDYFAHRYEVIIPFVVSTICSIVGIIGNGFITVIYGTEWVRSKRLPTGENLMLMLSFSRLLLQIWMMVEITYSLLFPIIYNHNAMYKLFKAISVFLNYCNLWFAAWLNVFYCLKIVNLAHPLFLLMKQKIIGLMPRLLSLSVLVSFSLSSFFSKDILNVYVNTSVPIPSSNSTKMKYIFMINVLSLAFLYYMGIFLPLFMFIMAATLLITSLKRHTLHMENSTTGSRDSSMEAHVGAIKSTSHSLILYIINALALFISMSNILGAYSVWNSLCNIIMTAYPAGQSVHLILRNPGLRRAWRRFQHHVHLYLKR
assay_name: Calcium imaging assay (FLIPR), HEK293T-Gα16gust44 cells transfected with mouse Tas2r144
Format: cell-based
condition_context: Time 42.781 s
The entries below come with measured RLU values attached.

{"compound": "C[C@H](CCC(=O)NCCS(=O)(=O)O)[C@H]1CC[C@H]2[C@@H]3CC[C@@H]4C[C@H](O)CC[C@]4(C)[C@H]3CC[C@]12C", "RLU / RLU": 269.502}
{"compound": "C[C@H](CCC(=O)NCC(=O)O)[C@H]1CC[C@H]2[C@@H]3[C@H](O)C[C@@H]4C[C@H](O)CC[C@]4(C)[C@H]3C[C@H](O)[C@]12C", "RLU / RLU": 335.112}
{"compound": "C[C@H](CCC(=O)NCCS(=O)(=O)O)[C@H]1CC[C@H]2[C@@H]3[C@H](O)C[C@@H]4C[C@H](O)CC[C@]4(C)[C@H]3C[C@H](O)[C@]12C", "RLU / RLU": 459.472}
{"compound": "C[C@H](CCC(=O)O)[C@H]1CC[C@H]2[C@@H]3[C@H](O)C[C@@H]4C[C@H](O)CC[C@]4(C)[C@H]3C[C@H](O)[C@]12C", "RLU / RLU": 606.644}
